molecular target: recombinant Antigen 1 (recombinant Ab1 target; recombinant integrin αvβ6 antigen); assay: saturation binding ELISA
Sequence (P06756 31-992, chain 1 of 2): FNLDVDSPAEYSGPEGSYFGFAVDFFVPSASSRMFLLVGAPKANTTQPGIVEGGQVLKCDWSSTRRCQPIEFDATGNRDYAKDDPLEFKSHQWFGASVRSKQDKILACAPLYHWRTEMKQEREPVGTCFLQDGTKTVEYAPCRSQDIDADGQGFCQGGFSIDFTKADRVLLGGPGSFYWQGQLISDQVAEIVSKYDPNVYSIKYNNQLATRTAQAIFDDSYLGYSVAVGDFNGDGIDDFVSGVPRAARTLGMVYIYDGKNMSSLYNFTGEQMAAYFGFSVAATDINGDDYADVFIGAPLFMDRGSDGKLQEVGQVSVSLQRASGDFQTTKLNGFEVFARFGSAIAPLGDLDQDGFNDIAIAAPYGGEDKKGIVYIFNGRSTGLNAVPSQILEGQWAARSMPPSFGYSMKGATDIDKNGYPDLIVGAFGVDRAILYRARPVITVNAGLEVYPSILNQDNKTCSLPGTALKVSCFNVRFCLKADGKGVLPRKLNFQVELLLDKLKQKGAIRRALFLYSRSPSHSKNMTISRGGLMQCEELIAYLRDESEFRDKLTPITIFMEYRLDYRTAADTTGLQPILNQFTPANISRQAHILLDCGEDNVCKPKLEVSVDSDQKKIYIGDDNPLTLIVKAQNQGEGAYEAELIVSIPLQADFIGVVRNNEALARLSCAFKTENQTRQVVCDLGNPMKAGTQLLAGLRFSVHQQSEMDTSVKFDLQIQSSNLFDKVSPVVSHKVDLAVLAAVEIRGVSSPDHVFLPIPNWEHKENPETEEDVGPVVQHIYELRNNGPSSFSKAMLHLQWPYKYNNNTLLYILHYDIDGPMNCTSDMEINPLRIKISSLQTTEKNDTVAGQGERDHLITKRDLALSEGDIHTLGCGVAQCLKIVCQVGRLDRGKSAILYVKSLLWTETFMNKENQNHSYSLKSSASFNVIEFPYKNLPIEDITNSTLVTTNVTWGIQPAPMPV
Sequence (P18564 22-709, chain 2 of 2, further chain): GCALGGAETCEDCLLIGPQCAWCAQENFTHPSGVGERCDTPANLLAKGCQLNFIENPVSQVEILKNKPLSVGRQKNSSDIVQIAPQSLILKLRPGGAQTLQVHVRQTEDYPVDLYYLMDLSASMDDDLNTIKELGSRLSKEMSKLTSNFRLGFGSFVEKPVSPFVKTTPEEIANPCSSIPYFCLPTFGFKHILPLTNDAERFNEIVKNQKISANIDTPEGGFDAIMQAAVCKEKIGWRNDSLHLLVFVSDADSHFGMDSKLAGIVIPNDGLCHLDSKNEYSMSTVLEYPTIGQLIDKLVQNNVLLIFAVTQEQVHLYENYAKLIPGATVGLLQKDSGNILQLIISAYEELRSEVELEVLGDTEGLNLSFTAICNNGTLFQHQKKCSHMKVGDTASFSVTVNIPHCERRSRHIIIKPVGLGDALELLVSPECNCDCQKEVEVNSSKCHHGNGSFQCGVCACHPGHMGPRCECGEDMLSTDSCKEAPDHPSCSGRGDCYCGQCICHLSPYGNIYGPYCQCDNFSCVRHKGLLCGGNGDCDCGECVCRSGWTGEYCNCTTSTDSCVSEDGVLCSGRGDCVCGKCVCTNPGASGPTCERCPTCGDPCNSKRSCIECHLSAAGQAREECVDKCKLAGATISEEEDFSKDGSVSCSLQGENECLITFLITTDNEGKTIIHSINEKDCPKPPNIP

Binder	Binding Bmax (OD450)
Vel-IPV-Ab1 Coil 134 (antibody, part only; not given: Ab1 heavy and light chains, part only) heavy, part: QGASTSVDELQAEVDQLEDENYAKKTKVAQLRKKVEKLGSIPVSLRSG light, part: QGASTTVAQLEEKVKTLRAENYEIKSEVQRLEEQVAQLGSIPVSLRSG	0.7
Vel-IPV-Ab1 Coil 103 (antibody, part only; not given: Ab1 heavy and light chains, part only) heavy, part: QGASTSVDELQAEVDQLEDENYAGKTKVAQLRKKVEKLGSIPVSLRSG light, part: QGASTTVAQLEEKVKTLRAENYEYKSEVQRLEEQVAQLGSIPVSLRSG	0.6
Vel-IPV-Ab1 Coil 121 (antibody, part only; not given: Ab1 heavy and light chains, part only) heavy, part: QGASTSVDELQAEVDQLEDENYAWKTKVAQLRKKVEKLGSIPVSLRSG light, part: QGASTTVAQLEEKVKTLRAENYEAKSEVQRLEEQVAQLGSIPVSLRSG	0.9
Vel-IPV-Ab1 Coil 124 (antibody, part only; not given: Ab1 heavy and light chains, part only) heavy, part: QGASTSVDELQAEVDQLEDENYASKTKVAQLRKKVEKLGSIPVSLRSG light, part: QGASTTVAQLEEKVKTLRAENYEWKSEVQRLEEQVAQLGSIPVSLRSG	0.6
